AIRE transcriptional activation functional score overview
B1: library; numbered along this chain (parent)
chain: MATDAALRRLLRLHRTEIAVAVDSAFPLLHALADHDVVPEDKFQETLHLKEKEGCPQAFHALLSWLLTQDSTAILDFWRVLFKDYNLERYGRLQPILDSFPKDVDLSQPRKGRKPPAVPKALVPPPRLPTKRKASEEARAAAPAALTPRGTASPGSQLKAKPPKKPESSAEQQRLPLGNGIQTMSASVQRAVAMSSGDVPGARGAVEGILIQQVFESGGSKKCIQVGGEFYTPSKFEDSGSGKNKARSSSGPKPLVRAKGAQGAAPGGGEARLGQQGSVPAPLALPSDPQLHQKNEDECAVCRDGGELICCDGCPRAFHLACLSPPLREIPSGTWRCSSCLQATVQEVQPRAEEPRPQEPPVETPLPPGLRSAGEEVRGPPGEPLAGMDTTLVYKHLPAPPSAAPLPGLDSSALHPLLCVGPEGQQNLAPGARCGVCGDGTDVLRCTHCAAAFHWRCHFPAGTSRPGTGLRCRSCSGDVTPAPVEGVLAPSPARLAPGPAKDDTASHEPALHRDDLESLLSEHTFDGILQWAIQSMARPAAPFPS

variants of: B1; assay: AIRE transcriptional activation functional score (insulin promoter-GFP; nonsense median 0, synonymous median 1) (normalised score); higher = higher AIRE activity (more reporter activation); settings: with insulin promoter-GFP reporter in HEK293
Respond using a number only.

# VARIANT ID, MEASUREMENT
data = [
    ("V479Y", 0.896),
]

Report measured AIRE transcriptional activation functional score; entry is `Q276S`
0.925

Report measured AIRE transcriptional activation functional score; entry is `P326T`
0.923
